test: mouse peroral pharmacokinetic analysis; format: in vivo; settings: IRC, in vivo; mouse PO 5 mg/kg
readout name: AUC(0-t) (ng·h/mL)
One number for each entry, in ng·h/mL.

Entry "CCOc1ccc(-c2nnc([C@H]3C[C@H](NC(=O)c4cccc5nccnc45)C3)n2-c2ccccc2F)nc1" has what AUC(0-t)? 4940

---

Target: PARP1/2/3/4/10/12/14/15
Test: PARP enzyme panel, summary line of Table 5
Conditions: one bound for all eight PARPs
Experimental: All reactions were performed at ambient temperature. The assay conditions for the other PARP enzymes were used as previously described.[39]
readout name: IC50

Entry CCOc1ccc(-c2nnc([C@H]3C[C@H](NC(=O)c4cccc5nccnc45)C3)n2-c2ccccc2F)nc1 [Compound 24] has what IC50? > 10 µM

---

Assay: in vitro
Assay type: in vitro ADME
Conditions: human, Caco-2
Protocol: Kinetic solubility, microsomal stability, and plasma stability were determined following our internal protocol (Symeres). The Caco-2 and PPB determinations were performed by Cyprotex.
readout name: efflux ratio
Numbers only.

Entry "CCOc1ccc(-c2nnc([C@H]3C[C@H](NC(=O)c4cccc5nccnc45)C3)n2-c2ccccc2F)nc1" has what efflux ratio? 0.64

---

experiment: mouse peroral pharmacokinetic analysis; format: in vivo; details: IRC, in vivo; mouse PO 5 mg/kg; read-out: MRT 0 → ∞
Note to self: values exactly at 2 h are Condition met. So MRT inf at 24 h at or above 2 h is Condition met, below is Condition not met.

Please review the following examples before continuing.
compound: CCOc1ccc(-c2nnc([C@H]3C[C@H](NC(=O)c4ccnc5cc(F)cnc45)C3)n2-c2ccncc2)nc1 [Compound 18b]
class assignment: Condition not met

compound: CCOc1ccc(-c2nnc([C@H]3C[C@H](NC(=O)c4ccnc5cccnc45)C3)n2-c2ccc(C)s2)nc1 [Compound 22a]
class assignment: Condition not met

compound: CCOc1ccc(-c2nnc([C@H]3C[C@H](NC(=O)c4cccc5nccnc45)C3)n2-c2ccccc2F)nc1
class assignment: Condition met

compound: Cc1cccc(-c2nnc([C@H]3C[C@H](NC(=O)c4cccc5nccnc45)C3)n2-c2ccccc2F)n1 [Compound 31a]
class assignment: Condition not met

Reported MRT inf at 24 h at or above 2 h? Cc1cccc(-c2nnc([C@H]3C[C@H](NC(=O)c4cc(F)cc5nccnc45)C3)n2-c2ccccc2F)n1 [Compound 31b] Condition not met

---

Kindly supply the reported pIC50 values for the records listed here.
biological target: TNKS2 (Homo sapiens); construct: TNKS2 (residues 873–1162); made in house; experiment: TNKS2 biochemical assay (unreacted NAD+ fluorescence); conditions: TNKS2 5 nM, 500 nM NAD+, 20 h; quadruplicates; 95% confidence intervals in parentheses; 24: averages of multiple independent measurements; read-out: IC50 TNKS2
Sequence (Q9H2K2 873-1162): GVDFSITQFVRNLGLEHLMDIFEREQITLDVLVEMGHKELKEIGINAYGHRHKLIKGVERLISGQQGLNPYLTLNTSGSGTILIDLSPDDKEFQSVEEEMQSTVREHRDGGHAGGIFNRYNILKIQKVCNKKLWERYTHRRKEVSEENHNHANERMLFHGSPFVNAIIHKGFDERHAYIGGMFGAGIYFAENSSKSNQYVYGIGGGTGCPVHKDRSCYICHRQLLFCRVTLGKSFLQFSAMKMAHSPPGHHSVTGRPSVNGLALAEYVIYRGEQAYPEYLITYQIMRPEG
Answers are plain numbers, as −log10 of the molar value.

molecule: O=C(N[C@H]1C[C@H](c2nnc(-c3ccc(OC(F)F)cn3)n2-c2ccccc2F)C1)c1cccc2nccnc12 [Compound 29a]
pIC50: 8.72

molecule: CCOc1ccc(-c2nnc([C@H]3C[C@H](NC(=O)c4ccnc5cccnc45)C3)n2-c2ccc(C)s2)nc1 [Compound 22a]
pIC50: 9.14

molecule: CCOc1ccc(-c2nnc([C@H]3C[C@H](NC(=O)c4cccc5cccnc45)C3)n2-c2ccc(C)s2)nc1
pIC50: 8.62

molecule: O=C(N[C@H]1C[C@H](c2nnc(-c3ccccn3)n2-c2ccccc2F)C1)c1cccc2nccnc12 [Compound 30a]
pIC50: 8.80

molecule: CCOc1ccc(-c2nnc([C@H]3C[C@H](NC(=O)c4ccccn4)C3)n2-c2ccc(C)s2)nc1
pIC50: 8.34

molecule: O=C(N[C@H]1C[C@H](c2nnc(-c3ccc(OC4CC4)cn3)n2-c2ccccc2F)C1)c1ccccn1
pIC50: 8.07

Each molecule below has a reported value. Please supply its pIC50.
1. CCOc1ccc(-c2nnc([C@H]3C[C@H](NC(=O)c4ccnc5cc(F)cnc45)C3)n2-c2ccccn2)nc1 [Compound 16b]
2. CCOc1ccc(-c2nnc([C@H]3C[C@H](NC(=O)c4ccccn4)C3)n2-c2ccc(Cl)s2)nc1

1. 8.07
2. 7.92

Each molecule below has a reported value. Please supply its pIC50.
1. CCOc1ccc(-c2nnc([C@H]3C[C@H](NC(=O)c4cccc5ncc(C)nc45)C3)n2-c2ccccc2F)nc1
2. Cc1cccc(-c2nnc([C@H]3C[C@H](NC(=O)c4cccc5nccnc45)C3)n2-c2ccccc2F)n1 [Compound 31a]

1: 8.82; 2: 8.77

---

Target: TNKS1 (Homo sapiens, UniProt O95271)
Sequence (O95271 1030-1317): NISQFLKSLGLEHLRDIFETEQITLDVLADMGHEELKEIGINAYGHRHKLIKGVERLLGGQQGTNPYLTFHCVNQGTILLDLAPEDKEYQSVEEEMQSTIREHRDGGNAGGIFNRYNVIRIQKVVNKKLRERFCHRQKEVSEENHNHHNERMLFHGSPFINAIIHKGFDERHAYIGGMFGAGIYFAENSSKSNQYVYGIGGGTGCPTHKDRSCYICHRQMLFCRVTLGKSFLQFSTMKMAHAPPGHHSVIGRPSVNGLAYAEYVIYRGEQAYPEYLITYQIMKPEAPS
readout name: IC50 (nM)
Numbers only, in nM.

Quick check: IC50 on TNKS1 (Homo sapiens, UniProt O95271), item CCOc1ccc(-c2nnc([C@H]3C[C@H](NC(=O)c4cccc5nccnc45)C3)n2-c2ccccc2F)nc1 [Compound 24] ? 13

---

Kindly supply the reported log10(CL) values for the records listed here.
test: mouse peroral pharmacokinetic analysis; format: in vivo; settings: mouse PO 5 mg/kg
Friendly reminder: values = log10 of CL, unit mL/min/kg.

Each compound below has a reported value. Please supply its log10(CL).
1. Cc1cccc(-c2nnc([C@H]3C[C@H](NC(=O)c4cc(F)cc5nccnc45)C3)n2-c2ccccc2F)n1 [Compound 31b]
2. CCOc1ccc(-c2nnc([C@H]3C[C@H](NC(=O)c4ccnc5cccnc45)C3)n2-c2ccc(C)s2)nc1 [Compound 22a]
3. Cc1cccc(-c2nnc([C@H]3C[C@H](NC(=O)c4cccc5nccnc45)C3)n2-c2ccccc2F)n1 [Compound 31a]
4. CCOc1ccc(-c2nnc([C@H]3C[C@H](NC(=O)c4cccc5nccnc45)C3)n2-c2ccccc2F)nc1 [Compound 24]

1. 1.20
2. 2.18
3. 1.39
4. 1.22

Entry CCOc1ccc(-c2nnc([C@H]3C[C@H](NC(=O)c4ccnc5cc(F)cnc45)C3)n2-c2ccncc2)nc1 [Compound 18b] has what log10(CL)? 2.41

---

test: in vitro; assay type: in vitro ADME; conditions: human, Caco-2
readout name: Papp A→B at 2 h, 10 µM (×10⁻⁶ cm/s)
One number for each entry, in ×10⁻⁶ cm/s.

Entry "CCOc1ccc(-c2nnc([C@H]3C[C@H](NC(=O)c4cccc5nccnc45)C3)n2-c2ccccc2F)nc1" has what Papp A→B at 2 h, 10 µM? 40.5

---

assay: mouse plasma stability; type: in vitro ADME; conditions: read-out: mouse plasma stability t1/2
readout name: half-life

Entry "CCOc1ccc(-c2nnc([C@H]3C[C@H](NC(=O)c4cccc5nccnc45)C3)n2-c2ccccc2F)nc1" has what half-life? > 2 h

---

Kindly supply the reported log10(AUC(0-inf) at 24 h) values for the records listed here.
assay: mouse peroral pharmacokinetic analysis; format: in vivo; details: IRC, in vivo; mouse PO 5 mg/kg
Friendly reminder: values = log10 of AUC(0-inf) at 24 h, unit ng·h/mL.

Some compounds with recorded log10(AUC(0-inf) at 24 h):
compound: CCOc1ccc(-c2nnc([C@H]3C[C@H](NC(=O)c4ccnc5cc(F)cnc45)C3)n2-c2ccncc2)nc1 [Compound 18b]
log10(AUC(0-inf) at 24 h): 2.51

compound: CCOc1ccc(-c2nnc([C@H]3C[C@H](NC(=O)c4cccc5nccnc45)C3)n2-c2ccccc2F)nc1 [Compound 24]
log10(AUC(0-inf) at 24 h): 3.70

compound: Cc1cccc(-c2nnc([C@H]3C[C@H](NC(=O)c4cc(F)cc5nccnc45)C3)n2-c2ccccc2F)n1 [Compound 31b]
log10(AUC(0-inf) at 24 h): 3.73

compound: Cc1cccc(-c2nnc([C@H]3C[C@H](NC(=O)c4cccc5nccnc45)C3)n2-c2ccccc2F)n1 [Compound 31a]
log10(AUC(0-inf) at 24 h): 3.53

// next item, log10(AUC(0-inf) at 24 h) requested
Entry CCOc1ccc(-c2nnc([C@H]3C[C@H](NC(=O)c4ccnc5cccnc45)C3)n2-c2ccc(C)s2)nc1 [Compound 22a] has what log10(AUC(0-inf) at 24 h)? 2.74

---

Assay: mouse peroral pharmacokinetic analysis
Type: in vivo
Settings: IRC, in vivo; mouse PO 5 mg/kg
Protocol: The pharmacokinetic analyses in mice were performed according to the standard protocols of Medicilon as previously described[21] following approval by local animal experiment authorities (Shanghai, China) and in compliance with FELASA guidelines and recommendations. Three IRC mice were used per treatment group: 5 mg/kg 24 in 5% DMSO, 50% PEG400 (both Sigma-Aldrich), and 45% saline as vehicle.
readout name: AUC(0-t) at 24 h (ng·h/mL)
Answers are plain numbers, in ng·h/mL.

Each molecule below has a reported value. Please supply its AUC(0-t) at 24 h.
1. Cc1cccc(-c2nnc([C@H]3C[C@H](NC(=O)c4cc(F)cc5nccnc45)C3)n2-c2ccccc2F)n1 [Compound 31b]
2. Cc1cccc(-c2nnc([C@H]3C[C@H](NC(=O)c4cccc5nccnc45)C3)n2-c2ccccc2F)n1 [Compound 31a]

5310
3400

Each molecule below has a reported value. Please supply its AUC(0-t) at 24 h.
1. CCOc1ccc(-c2nnc([C@H]3C[C@H](NC(=O)c4ccnc5cccnc45)C3)n2-c2ccc(C)s2)nc1 [Compound 22a]
2. CCOc1ccc(-c2nnc([C@H]3C[C@H](NC(=O)c4ccnc5cc(F)cnc45)C3)n2-c2ccncc2)nc1 [Compound 18b]

1: 543; 2: 319
